// values below are reported melting point

Record excerpt, results attached:
{"columns": ["compound", "measured"],
 "data": [
  ["CCOCc1nc2c(N)nc3ccccc3c2n1CC1CCN(C)O1 (configuration not stated)", "173 to 174 °C"],
  ["COc1cc2cc(CC(C)(C(N)=O)c3ccc(C#N)cc3)sc2cc1OC (configuration not stated)", "178 to 180 °C"],
  ["CC1(C)CC(=O)c2c(O)cc(C=Cc3ccccc3)cc2O1", "116 °C"],
  ["CC1CCC(C(C)C)C(c2ccc3c(c2)C(c2ccccc2)(C(F)(F)F)c2cc(C4CC(C)CCC4C(C)C)ccc2O3)C1 (configuration not stated)", "150 to 151 °C"],
  ["CCCc1nc2c(N)nc3cc(OC)ccc3c2s1", "152 to 154 °C"],
  ["O=C(Oc1n[nH]c(=O)c2nc3cc(Cl)ccc3c(O)c12)c1ccccc1", "348 to 353 °C"]
]}

Req: For Cc1nc2cc(-c3ccc4c(c3)C=C(C(=O)Nc3ccc(CN(C)C5CCOCC5)cc3)CCS4(=O)=O)ccc2o1 , what is its reported melting point?
Resp: 236 to 240 °C

Req: Next compound up: CC(=O)c1cc(-c2ccc(C)cc2)c2c(c1)C(C)(C)CCC2(C)C
Resp: 102 °C

Req: Next compound up: CC(C)(Cc1ccc(Cl)cc1)C(C#N)C(=O)O (configuration not stated)
Resp: 137 to 138 °C

Req: Next compound up: CCCCCCCCCCCCCCCCCC(=O)N1CC1C#N (configuration not stated)
Resp: 85 to 88 °C

Req: Next compound up: O=C(O)c1cc2c(s1)-c1ccccc1OC2C1=CCCC=C1 (configuration not stated)
Resp: 258 to 260 °C

Req: Next compound up: N#CC(F)(F)C(O)(Cn1cncn1)c1ccc(F)cc1F (configuration not stated)
Resp: 130 to 132 °C

----------
// values below are reported melting point

Record excerpt, results attached:
{"columns": ["compound", "melting point"],
 "data": [
  ["N#Cc1nn(-c2c(Cl)cc(C(F)(F)F)cc2Cl)c(-n2ccnc2)c1S(=O)(=O)C(F)(F)F", "214 to 215 °C"],
  ["Cc1nc(C(F)(F)F)ccc1C(=O)C1=C(Cl)C2CCC(C2)C1=O (stereo unspecified)", "137 to 138 °C"],
  ["CC(C)C[C@H](NC(=O)OCc1ccccc1)C(=O)N[C@@H](CCc1ccccc1)C(=O)CSCc1ccco1", "73 to 77 °C"],
  ["CSC(=NCCSCc1ccccn1)NC#N", "85 to 88 °C"],
  ["CC(C)(C)NCC(O)COc1cccc(NC(N)=O)c1C(N)=O (stereo unspecified)", "189 to 191 °C"]
]}

# evaluate next
Req: For O=C(CCC1CCCCC1)NC1N=C(c2ccccc2)c2ccccc2NC1=S (stereo unspecified) , what is its reported melting point?
Resp: 113 to 119 °C

----------
measured property: melting point

Record excerpt, results attached:
{"columns": ["molecule", "measured property", "measured"],
 "data": [
  ["O=C(N[C@H](Cc1ccc(C(F)(F)F)cc1)[C@@H](O)c1ccc(F)cc1)c1ccnc2ccccc12 (racemic)", "melting point", "227 to 228 °C"],
  ["CCCC1C(=O)N(S(C)(=O)=O)C2CCN(S(C)(=O)=O)C12 (stereo not drawn)", "melting point", "205 to 208 °C"]
]}

# evaluate next
Req: For CN1CC(CO)CC2(OCCO)c3cccc4[nH]cc(c34)CC12 (stereo not drawn) , what is its reported melting point?
Resp: 178 to 180 °C
